Recorded percent response of DMSO control, one value per entry.
test: TOR pathway RTG branch CIT2 reporter changes – S. cerevisiae, GFP fusion, multiplex flow cytometry, primary screen (AID 1870);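 also: barcoded CIT2-GFP strain pooled with four other GFP strains with rapamycin as positive control; median GFP fluorescence per well over plate mean of DMSO wells so 100% = DMSO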; conditions: S. cerevisiae CIT2-GFP expression, 3 h, at 10 µM, active compounds read high

[
  {
    "Compound": "COc1ccccc1C(=O)Nc1cc2cc(Br)ccc2oc1=O",
    "percent response of DMSO control [%]": 96
  },
  {
    "Compound": "O=C(N/N=C\\c1cc([N+](=O)[O-])ccc1N1CCOCC1)c1ccccn1",
    "percent response of DMSO control [%]": 107
  },
  {
    "Compound": "CN(C(=O)C(Cl)Cl)c1ccc(OC(=O)c2ccco2)cc1",
    "percent response of DMSO control [%]": 97.8
  },
  {
    "Compound": "COc1cc(C2Nc3ccccc3NC3=C2C(=O)CC(c2ccc(OC)c(OC)c2)C3)ccc1O (stereo not drawn)",
    "percent response of DMSO control [%]": 117
  },
  {
    "Compound": "CN1CC2CCCC3(C1)C(=O)NC1(CCCCC1)N=C23 (stereo not drawn)",
    "percent response of DMSO control [%]": 111
  },
  {
    "Compound": "CS(=O)(=O)Nc1cccc(C(=O)CC2(O)C(=O)Nc3ccc(Br)cc32)c1 (stereo not drawn)",
    "percent response of DMSO control [%]": 142
  },
  {
    "Compound": "O=C(O)CCCc1ccccc1",
    "percent response of DMSO control [%]": 115
  },
  {
    "Compound": "CC1(C#CC[N+]2(C)CCCCC2)CCC2C(O1)c1ccccc1OC2(C)C (stereo not drawn)",
    "percent response of DMSO control [%]": 107
  },
  {
    "Compound": "CCCNCC(O)COc1ccccc1C(=O)CCc1ccccc1 (stereo not drawn)",
    "percent response of DMSO control [%]": 89.6
  },
  {
    "Compound": "COCCNC(=O)CSc1ccc(Cl)cc1",
    "percent response of DMSO control [%]": 105
  },
  {
    "Compound": "C#C[C@]1(O)CC[C@H]2[C@@H]3CCC4=CC(=O)CC[C@@H]4[C@H]3CC[C@@]21CC",
    "percent response of DMSO control [%]": 97.7
  },
  {
    "Compound": "CC1(C)S[C@@H]2[C@H](NC(=O)Cc3ccccc3)C(=O)N2[C@H]1C(=O)O",
    "percent response of DMSO control [%]": 98.3
  },
  {
    "Compound": "CCCCC(=O)O[C@H]1CC[C@H]2[C@@H]3CCc4cc(O)ccc4[C@H]3CC[C@]12C",
    "percent response of DMSO control [%]": 109
  },
  {
    "Compound": "Cc1ccccc1N1C(N)=NC(N)=NC1(C)C",
    "percent response of DMSO control [%]": 108
  },
  {
    "Compound": "COc1ccc(C(=O)N2c3cc4c(cc3C(C)=CC2(C)C)OCO4)cc1",
    "percent response of DMSO control [%]": 98.9
  },
  {
    "Compound": "N=c1nc(N2CCCCC2)cc(N)n1O",
    "percent response of DMSO control [%]": 107
  },
  {
    "Compound": "Cc1ccc(C(=O)COC(=O)c2cccc(N3C(=O)c4c(C)nc5ccccc5c4C3=O)c2)cc1C",
    "percent response of DMSO control [%]": 97
  },
  {
    "Compound": "CC(C)(C)OC(=O)N1CC(O)CC1C(=O)OCC(=O)c1ccc(Cl)cc1 (stereo not drawn)",
    "percent response of DMSO control [%]": 113
  },
  {
    "Compound": "COc1cc(OC)c2c(C)c(Cl)c(=O)oc2c1",
    "percent response of DMSO control [%]": 105
  },
  {
    "Compound": "Cc1ccc(C(=O)COC(=O)c2cnccn2)cc1[N+](=O)[O-]",
    "percent response of DMSO control [%]": 110
  },
  {
    "Compound": "Cc1cn([C@H]2C[C@H](N=[N+]=[N-])[C@@H](CO)O2)c(=O)[nH]c1=O",
    "percent response of DMSO control [%]": 110
  },
  {
    "Compound": "CN(C)CCN(Cc1ccc(Cl)cc1)c1ccccn1",
    "percent response of DMSO control [%]": 114
  },
  {
    "Compound": "Cc1ccc(C(=O)NCCNC(=O)c2ccccc2)cc1",
    "percent response of DMSO control [%]": 88
  }
]
